Taken from patent US8178688B2.

Tested on: ovariectomized ddY mouse
ASSAY_PROCEDURE: Therapeutic effect in the ovariectomized osteoporetic mouse model (trabecular bone volume of the femur)
Type: in vivo, ddY mice
PARTICULARS: Mus musculus, 672 h, 50 mg/kg/day oral gavage for 4 weeks from 4 weeks after ovariectomy, salts (methansulfonic acid or HCl), read-out: Changes on TBV (% changes vs vehicle control)
MEASUREMENT_NAME: change in vivo at 50 mg/kg (%)
The answer is to be given in %; state only the numeric part.

IN: For the compound Cc1nc(-c2ccc(OCCCCCOc3ccc(C(=N)NO)c(F)c3)cc2)c(C(C)C)s1 [Example 187] , what change in vivo at 50 mg/kg is on record?
OUT: 117

IN: For the compound Cc1nc(-c2ccc(OCCCCCOc3ccc(C(=N)NO)c(O)c3)cc2)c(C(C)C)s1 [Example 188] , what change in vivo at 50 mg/kg is on record?
OUT: 92

IN: For the compound Cc1sc(N2CCOCC2)nc1-c1ccc(OCCCCCOc2ccc(C(=N)NO)cc2)cc1 [Example 165] , what change in vivo at 50 mg/kg is on record?
OUT: 37.5

IN: For the compound CCCCCc1nc(-c2ccc(OCCCCCOc3ccc(C(=N)NO)cc3)cc2)c(CC)s1 [Example 23] , what change in vivo at 50 mg/kg is on record?
OUT: 28

IN: For the compound Cc1nc(-c2ccc(OCCCCCOc3ccc(C(=N)NO)cc3)cc2)c(C2CCCC2)s1 [Example 43] , what change in vivo at 50 mg/kg is on record?
OUT: 155

IN: For the compound CCc1sc(-c2cccnc2)nc1-c1ccc(OCCCCCOc2ccc(C(=N)NO)cc2)cc1 [Example 21] , what change in vivo at 50 mg/kg is on record?
OUT: 75.5
